Hello, the source for this data is patent US20120219562A1, in case you need it.

Target desc: T1, human interleukin 12 (p70 heterodimer of p35 and p40) (human, UniProt P29459 23-219; P29460 23-328)
T1 construct: Recombinant human IL-12; also called hIL-12; IL-12
T1 sequence (looked up) 1: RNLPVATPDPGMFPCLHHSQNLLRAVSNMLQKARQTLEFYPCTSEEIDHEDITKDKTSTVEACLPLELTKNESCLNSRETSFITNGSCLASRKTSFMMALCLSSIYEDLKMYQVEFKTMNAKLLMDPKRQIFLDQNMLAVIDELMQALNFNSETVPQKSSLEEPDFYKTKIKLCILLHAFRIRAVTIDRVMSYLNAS
T1 sequence (looked up) 2: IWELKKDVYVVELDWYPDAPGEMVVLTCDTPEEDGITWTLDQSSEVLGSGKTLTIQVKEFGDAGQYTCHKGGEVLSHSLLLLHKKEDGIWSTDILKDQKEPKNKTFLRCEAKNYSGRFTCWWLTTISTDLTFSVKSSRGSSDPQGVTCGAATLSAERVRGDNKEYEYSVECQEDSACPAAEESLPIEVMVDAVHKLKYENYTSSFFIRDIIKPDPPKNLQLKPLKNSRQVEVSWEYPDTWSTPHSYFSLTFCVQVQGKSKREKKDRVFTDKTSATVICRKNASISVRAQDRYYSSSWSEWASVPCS
Measurement description: SPR (BIAcore), off-rate
Kindly supply the reported koff values for the records listed here.
Provide only the numeric value, understood in s⁻¹.

stdin: Returns the measured koff for the input binder. Input: SEQ ID NO: 498 (Y61, N at L32) (antibody, V domains shown) VH: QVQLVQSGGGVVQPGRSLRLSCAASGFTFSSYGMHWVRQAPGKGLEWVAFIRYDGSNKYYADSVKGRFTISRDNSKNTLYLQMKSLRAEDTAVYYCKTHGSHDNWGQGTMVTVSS VL: SYVLTQPPSVSGTPGQRVTISCSGGRSNIGSNNVKWYQQLPGTAPKLLIYGNDQRPSGVPDRFSGSKSGTSASLAITGVQAEDEADYYCQSYDRGTHPALLFGTGTKVTVLG
stdout: 0.00197

stdin: Returns the measured koff for the input binder. Input: SEQ ID NO: 490 (Y61, I at L31) (antibody, V domains shown) VH: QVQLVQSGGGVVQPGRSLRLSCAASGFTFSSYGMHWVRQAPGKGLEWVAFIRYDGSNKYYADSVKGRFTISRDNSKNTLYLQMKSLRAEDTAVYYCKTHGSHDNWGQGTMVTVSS VL: SYVLTQPPSVSGTPGQRVTISCSGGRSNIGSITVKWYQQLPGTAPKLLIYGNDQRPSGVPDRFSGSKSGTSASLAITGVQAEDEADYYCQSYDRGTHPALLFGTGTKVTVLG
stdout: 9.7e-05

stdin: Returns the measured koff for the input binder. Input: SEQ ID NO: 489 (Y61, M at L31) (antibody, V domains shown) VH: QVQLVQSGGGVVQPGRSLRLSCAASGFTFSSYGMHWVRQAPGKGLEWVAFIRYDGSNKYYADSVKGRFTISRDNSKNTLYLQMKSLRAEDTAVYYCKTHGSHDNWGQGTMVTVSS VL: SYVLTQPPSVSGTPGQRVTISCSGGRSNIGSMTVKWYQQLPGTAPKLLIYGNDQRPSGVPDRFSGSKSGTSASLAITGVQAEDEADYYCQSYDRGTHPALLFGTGTKVTVLG
stdout: 0.000174

stdin: Returns the measured koff for the input binder. Input: SEQ ID NO: 495 (Y61, H at L32) (antibody, V domains shown) VH: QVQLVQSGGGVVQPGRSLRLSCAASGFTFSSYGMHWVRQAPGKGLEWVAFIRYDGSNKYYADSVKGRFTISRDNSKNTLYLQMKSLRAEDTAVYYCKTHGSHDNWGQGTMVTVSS VL: SYVLTQPPSVSGTPGQRVTISCSGGRSNIGSNHVKWYQQLPGTAPKLLIYGNDQRPSGVPDRFSGSKSGTSASLAITGVQAEDEADYYCQSYDRGTHPALLFGTGTKVTVLG
stdout: 0.00026

stdin: Returns the measured koff for the input binder. Input: SEQ ID NO: 482 (Y61, Y at L31) (antibody, V domains shown) VH: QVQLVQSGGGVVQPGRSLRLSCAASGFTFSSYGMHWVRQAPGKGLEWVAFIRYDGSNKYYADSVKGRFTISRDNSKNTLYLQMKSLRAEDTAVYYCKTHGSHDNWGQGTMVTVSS VL: SYVLTQPPSVSGTPGQRVTISCSGGRSNIGSYTVKWYQQLPGTAPKLLIYGNDQRPSGVPDRFSGSKSGTSASLAITGVQAEDEADYYCQSYDRGTHPALLFGTGTKVTVLG
stdout: 0.000357
